assay: chemical genetic growth profiling, strain panel (AID 1159580);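 note: tested at 20 µM; growth read once vehicle control cultures reached saturation at 30 °C; 1 = growth at the plate median or of vehicle wells; lower values mean less growth of the strain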; settings: S. cerevisiae deletion strains, growth OD, locus YDR392W, strain spt3, active compounds read low
Screen size: about 5,500 compounds; about 2,000 (36%) were called active. Another 18% or so got no clear call; they are omitted. The list shows a part of the results.
Recorded normalized growth for the following compounds
Give your answer as a number; write no unit.

# Compound, normalized growth
records = [
    ("COc1ccc(-c2cc(=O)c3c(OC)c(OC)c(OC)c(OC)c3o2)cc1OC", 1.01),
    ("CC(C)C[C@@H](NC(=O)OCC1c2ccccc2-c2ccccc21)C(=O)O", 0.955),
    ("COc1cc2c(cc1OC)-c1c(oc3cc(O)cc(O)c3c1=O)CO2", 1.01),
    ("CC1(C)S[C@@H]2[C@H](NC(=O)C(C(=O)O)c3ccccc3)C(=O)N2[C@H]1C(=O)O (stereo partly drawn)", 0.895),
]

Can you look up the measured normalized growth of `COc1ccc(-c2cc(=O)c3c(O)c(OC)c(OC)c(OC)c3o2)cc1OC` for me?
0.867

Can you look up the measured normalized growth of `COc1ccc(-c2cc(=O)c3c(O)c(OC)c(O[C@H]4O[C@H](CO[C@@H]5O[C@@H](C)[C@H](O)[C@@H](O)[C@H]5O)[C@@H](O)[C@H](O)[C@H]4O)cc3o2)cc1` for me?
0.981

Can you look up the measured normalized growth of `C[N+]1(C)C[C@H](O)[C@H](C(=O)[O-])C1` for me?
0.996

Can you look up the measured normalized growth of `COc1ccc(-c2cc(=O)c3c(O)cc(O)cc3o2)cc1` for me?
0.804
